- tested-target: Bile acid receptor (Homo sapiens, UniProt Q96RI1)
- Sequence (Q96RI1 whole entry): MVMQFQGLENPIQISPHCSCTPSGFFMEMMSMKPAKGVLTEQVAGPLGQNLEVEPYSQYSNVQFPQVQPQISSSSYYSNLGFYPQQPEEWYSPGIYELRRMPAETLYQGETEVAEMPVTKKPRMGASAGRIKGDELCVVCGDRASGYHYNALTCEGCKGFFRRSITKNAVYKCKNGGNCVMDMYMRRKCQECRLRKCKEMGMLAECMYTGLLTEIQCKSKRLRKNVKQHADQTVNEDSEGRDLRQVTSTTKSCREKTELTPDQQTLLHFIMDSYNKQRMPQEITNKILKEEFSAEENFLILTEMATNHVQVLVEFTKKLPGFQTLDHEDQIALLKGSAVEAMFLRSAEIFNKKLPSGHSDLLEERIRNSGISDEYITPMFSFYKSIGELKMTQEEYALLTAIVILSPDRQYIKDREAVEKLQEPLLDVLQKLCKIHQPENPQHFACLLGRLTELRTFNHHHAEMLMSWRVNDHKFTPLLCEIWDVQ
- test-name: Affinity On-target Cellular interaction: (Reporter gene assay (HEK293T cells)) EUB0001168a NR1H4
- Type: functional, cell-based, HEK-293T
- Parameters: mode of action Agonist, recommended concentration 1 uM
observation-type: EC50 (nM)

> print(dat)
                                   molecule  units.text  observed.measurement
1  O=C(O)c1ccnc(N2CC(O)(c3ccc(OCc4c(-c5c(Cl)cccc5Cl)noc4C4CC4)cc3Cl)C2)c1 [CILOFEXOR]          nM                    40

---

- tested-target: Oxysterols receptor LXR-beta (Homo sapiens)
- Sequence (P55055 whole entry): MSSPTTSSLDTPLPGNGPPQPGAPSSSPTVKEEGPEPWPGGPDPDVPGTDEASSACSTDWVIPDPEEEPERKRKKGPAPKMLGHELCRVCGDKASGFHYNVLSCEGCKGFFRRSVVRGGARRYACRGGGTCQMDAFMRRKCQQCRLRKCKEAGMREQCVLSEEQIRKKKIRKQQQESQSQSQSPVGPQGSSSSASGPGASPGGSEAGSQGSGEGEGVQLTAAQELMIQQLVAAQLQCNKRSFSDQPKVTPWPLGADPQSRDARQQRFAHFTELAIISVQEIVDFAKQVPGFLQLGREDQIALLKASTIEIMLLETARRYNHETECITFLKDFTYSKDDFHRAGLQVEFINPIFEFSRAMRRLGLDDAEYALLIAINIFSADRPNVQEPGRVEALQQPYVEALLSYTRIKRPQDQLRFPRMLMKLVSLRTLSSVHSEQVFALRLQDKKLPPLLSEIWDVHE
- test-name: Affinity On-target Cellular interaction: (Reporter gene assay (HEK293T cells)) EUB0000572aCl NR1H2
- Type: functional, cell-based, HEK-293T
- Set-up: mode of action Agonist, recommended concentration 3 uM
observation-type: EC50 (µM)

> print(dat)
                                   compound  observed.measurement
1  O=C(O)Cc1cccc(OCCCN(Cc2cccc(C(F)(F)F)c2Cl)CC(c2ccccc2)c2ccccc2)c1                   2.1

---

- tested-target: Histone deacetylase 1 (Homo sapiens, UniProt Q13547)
- Sequence (Q13547 whole entry): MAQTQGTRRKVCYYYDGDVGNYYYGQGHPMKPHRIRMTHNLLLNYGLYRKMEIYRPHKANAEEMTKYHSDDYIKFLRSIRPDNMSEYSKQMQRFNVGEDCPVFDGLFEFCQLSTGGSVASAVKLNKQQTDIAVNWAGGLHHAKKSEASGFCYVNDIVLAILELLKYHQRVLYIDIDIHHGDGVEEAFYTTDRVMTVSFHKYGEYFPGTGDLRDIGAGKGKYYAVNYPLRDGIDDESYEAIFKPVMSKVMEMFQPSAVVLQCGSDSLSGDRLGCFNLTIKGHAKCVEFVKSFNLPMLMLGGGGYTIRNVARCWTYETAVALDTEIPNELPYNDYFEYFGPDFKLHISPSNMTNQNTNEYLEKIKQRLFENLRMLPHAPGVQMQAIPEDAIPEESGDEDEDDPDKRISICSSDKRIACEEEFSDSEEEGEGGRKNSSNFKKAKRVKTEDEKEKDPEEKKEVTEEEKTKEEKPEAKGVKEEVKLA
- test-name: Affinity On-target Cellular interaction: (Inhibition of enzyme activity in 293T cells transfected with vector alone) EUB0002519a HDAC1
pIC50: −log10 of the molar value.
observation-type: pIC50

> print(dat)
                                  compound                             tested.target  observed.measurement
1  Nc1ccc(-c2cccs2)cc1NC(=O)c1ccc(NC=O)cc1  Histone deacetylase 1 (Homo sapiens, UniProt Q13547)                  6.52

---

- tested-target: Triacylglycerol hydrolase DDHD2 (Homo sapiens, UniProt O94830)
- Sequence (O94830 whole entry): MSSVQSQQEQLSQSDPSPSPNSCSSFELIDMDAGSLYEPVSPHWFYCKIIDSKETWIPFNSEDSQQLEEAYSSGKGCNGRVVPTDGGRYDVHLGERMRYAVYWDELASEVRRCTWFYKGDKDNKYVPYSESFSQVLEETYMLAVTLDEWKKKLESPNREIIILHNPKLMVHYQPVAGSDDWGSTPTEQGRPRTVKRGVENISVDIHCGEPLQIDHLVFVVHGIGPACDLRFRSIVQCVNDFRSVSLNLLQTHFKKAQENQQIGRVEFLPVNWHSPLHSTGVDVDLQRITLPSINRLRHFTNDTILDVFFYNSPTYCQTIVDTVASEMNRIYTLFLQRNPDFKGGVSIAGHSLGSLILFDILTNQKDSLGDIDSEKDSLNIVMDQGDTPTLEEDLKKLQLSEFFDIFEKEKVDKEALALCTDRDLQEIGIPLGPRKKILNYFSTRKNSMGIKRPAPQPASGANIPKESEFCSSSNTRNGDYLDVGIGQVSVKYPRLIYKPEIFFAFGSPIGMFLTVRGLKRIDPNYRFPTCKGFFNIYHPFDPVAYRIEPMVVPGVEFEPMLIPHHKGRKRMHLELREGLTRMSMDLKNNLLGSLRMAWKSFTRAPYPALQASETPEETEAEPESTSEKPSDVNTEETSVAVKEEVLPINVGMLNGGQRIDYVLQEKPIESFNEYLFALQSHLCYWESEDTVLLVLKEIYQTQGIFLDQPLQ
- test-name: Affinity On-target Cellular interaction: (Inhibition of DDHD2 in HEK293T cells measured by competitive activity-based protein profiling) EUB0002612a DDHD2
pIC50: −log10 of the molar value.
observation-type: pIC50

> print(dat)
                                   compound  observed.measurement
1  O=C(N(CCc1ccccc1)C1CCCCC1)n1ncc(-c2ccc(OC(F)(F)F)cc2)n1                  8.44

The measured values listed here are drawn from ChEMBL document CHEMBL5723379.
